Source of measurements: patent US20230295213A1

assay name: Pharmacokinetic evaluation in ICR mice, intravenous
Assay type: in vivo
experimental context: mouse; ICR male mice, 1.0 mg/kg intravenous, plasma
Below, each entry is listed alongside its reported log10(AUC(0-inf)).
The common logarithm of AUC(0-inf) in ng·h/mL is what is listed.

Example entries begin here.
| compound | measured |
| --- | --- |
| O=P(O)(O)CP(=O)(O)OC[C@H]1O[C@@H](n2cnc3c(N4CC5(CCCCCC5)c5ccccc54)nc(Cl)nc32)[C@@H](O)C1O (stereo partly drawn) | 5.22 |
| O=P(O)(O)CP(=O)(O)OC[C@H]1O[C@@H](n2cnc3c(N4CCC5(CCCCC5)C4)nc(Cl)nc32)[C@@H](O)C1O (stereo partly drawn) [Compound b, reference compound] | 3.96 |
| O=P(O)(O)CP(=O)(O)OC[C@H]1O[C@@H](n2cnc3c(N4CC5(CCc6ccccc65)C4)nc(Cl)nc32)[C@@H](O)C1O (stereo partly drawn) | 3.80 |

Exercise: Which log10(AUC(0-inf)) is reported for this compound? O=P(O)(O)CP(=O)(O)OC[C@H]1O[C@@H](n2cnc3c(N4CC5(Cc6ccccc6C5)C4)nc(Cl)nc32)[C@@H](O)C1O (stereo partly drawn)
Key: 4.35

Exercise: Which log10(AUC(0-inf)) is reported for this compound? O=P(O)(O)CP(=O)(O)OC[C@H]1O[C@@H](n2cnc3c(N4CC5(CCCCC5)c5ccccc54)nc(Cl)nc32)[C@@H](O)C1O (stereo partly drawn)
Key: 5.29

Exercise: Which log10(AUC(0-inf)) is reported for this compound? O=P(O)(O)CP(=O)(O)OC[C@H]1O[C@@H](n2cnc3c(N4CCC5(CCCc6ccccc65)C4)nc(Cl)nc32)[C@@H](O)C1O (stereo partly drawn)
Key: 3.82
